Sourced from ChEMBL document CHEMBL1148736

targetDesc: Oxysterols receptor LXR-alpha (Homo sapiens)
Sequence (Q13133 whole entry): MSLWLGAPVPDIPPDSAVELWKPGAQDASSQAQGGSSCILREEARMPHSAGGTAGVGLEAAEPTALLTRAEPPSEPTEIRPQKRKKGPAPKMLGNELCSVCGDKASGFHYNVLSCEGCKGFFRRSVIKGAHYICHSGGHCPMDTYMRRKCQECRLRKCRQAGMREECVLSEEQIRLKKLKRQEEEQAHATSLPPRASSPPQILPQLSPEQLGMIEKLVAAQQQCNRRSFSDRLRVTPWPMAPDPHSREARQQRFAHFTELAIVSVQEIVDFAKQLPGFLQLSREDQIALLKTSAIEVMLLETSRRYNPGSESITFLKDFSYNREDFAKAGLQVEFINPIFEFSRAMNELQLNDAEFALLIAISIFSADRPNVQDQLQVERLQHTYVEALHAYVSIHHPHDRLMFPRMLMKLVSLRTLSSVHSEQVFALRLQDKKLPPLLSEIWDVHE
assayDetails: Displacement of [3H]T-0901317 from GAL-linked human LXRalpha expressed in THP1 cells at 20 uM by SPA relative to GW-3965
Format: cell-based
conditionNotes: THP-1
endpointLabel: Efficacy

In [3]: df
Out[3]:
                                   compound  measuredresult
0  O=C(O)Cc1cccc(OCCCN(Cc2cccc(C(F)(F)F)c2Cl)CC(c2ccccc2)c2ccccc2)c1            100%
1  COc1cccc(C2SC(c3ccc(Cl)cc3)=NN2C(=O)c2c(F)cc(F)cc2F)c1OC (racemic)             52%
2  COc1cccc([C@@H]2SC(c3ccc(Cl)cc3)=NN2C(=O)c2c(F)cc(F)cc2F)c1OC           < 15%
3  COc1cccc([C@H]2SC(c3ccc(Cl)cc3)=NN2C(=O)c2c(F)cc(F)cc2F)c1OC             80%

---

targetDesc: UniProtKB P55055
Sequence (P55055 whole entry): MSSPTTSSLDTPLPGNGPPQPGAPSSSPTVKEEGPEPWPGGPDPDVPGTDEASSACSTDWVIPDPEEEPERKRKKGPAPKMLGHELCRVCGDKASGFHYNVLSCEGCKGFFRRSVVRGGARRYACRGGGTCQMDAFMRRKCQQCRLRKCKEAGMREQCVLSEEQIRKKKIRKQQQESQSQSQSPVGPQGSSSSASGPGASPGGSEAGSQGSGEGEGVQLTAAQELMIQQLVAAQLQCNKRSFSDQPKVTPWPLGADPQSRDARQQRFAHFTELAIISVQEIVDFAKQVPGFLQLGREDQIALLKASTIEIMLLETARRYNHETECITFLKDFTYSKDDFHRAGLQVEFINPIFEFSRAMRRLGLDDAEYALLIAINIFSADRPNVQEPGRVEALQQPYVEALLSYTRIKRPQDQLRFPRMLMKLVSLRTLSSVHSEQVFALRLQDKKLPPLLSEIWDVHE
assayDetails: Agonist activity at GAL-linked human LXRbeta expressed in THP1 cells assessed as stimulation of co-activator recruitment by FRET assay relative to GW-3965
Assay type: functional
// reported Efficacy per item
endpointLabel: Efficacy (%)

>>> print(df.to_string())
                                   molecule  measurementunit  measuredresult
0  COc1cccc(C2SC(c3ccc(C)cc3)=NN2C(=O)c2c(F)cc(F)cc2F)c1OC (stereo not given)                %              98
1  COc1cccc(C2SC(c3ccc(Cl)cc3)=NN2C(=O)c2c(F)cc(F)cc2F)c1 (stereo not given)                %              60
2  COc1ccccc1C1(C)SC(c2ccc(F)cc2)=NN1C(=O)c1c(F)cc(F)cc1F (stereo not given)                %              50
3  COc1cccc(C2SC(c3ccc(F)c(F)c3)=NN2C(=O)c2cccc(F)c2)c1OC (stereo not given)                %              83
4  COc1cccc(C2SC(c3ccc(Cl)cc3)=NN2C(=O)c2ccc(F)cc2F)c1OC (stereo not given)                %              80

---

Reported EC50 values for a set of compounds
targetDesc: Oxysterols receptor LXR-alpha (Homo sapiens)
assayDetails: Agonist activity at GAL-linked human LXRalpha expressed in THP1 cells assessed as stimulation of coactivator recruitment by FRET assay
Type: functional
endpointLabel: EC50 (nM)

                                   compound  measuredresult
0  COc1cccc(C2SC(c3ccc(F)cc3)=NN2C(=O)c2cc(F)c(F)c(OC)c2F)c1OC (stereo not given)             700
1  COc1cccc(C2SC(c3ccc(F)cc3)=NN2C(=O)c2c(F)cc(Br)cc2F)c1OC (stereo not given)             900
2  COc1cccc(C2SC(c3ccc(F)c(F)c3)=NN2C(=O)c2cccc(F)c2)c1OC (stereo not given)            1500
3  O=C(c1c(F)cc(F)cc1F)N1N=C(c2ccc(F)cc2)SC1c1ccccc1OC(F)F (stereo not given)            1900
4  COc1cccc(C2SC(c3ccc(Cl)cc3)=NN2C(=O)c2ccc(F)cc2F)c1OC (stereo not given)            6700
